This collection of values is drawn from paper PMC6016738.

Entries and their remaining activity at 1 µM
biological target: E. coli topoisomerase IV (Escherichia coli, UniProt P20083); test: E. coli topoisomerase IV inhibition assay; conditions: read-out: RA (residual activity) E. coli topo IV
Sequence (P20083 whole entry): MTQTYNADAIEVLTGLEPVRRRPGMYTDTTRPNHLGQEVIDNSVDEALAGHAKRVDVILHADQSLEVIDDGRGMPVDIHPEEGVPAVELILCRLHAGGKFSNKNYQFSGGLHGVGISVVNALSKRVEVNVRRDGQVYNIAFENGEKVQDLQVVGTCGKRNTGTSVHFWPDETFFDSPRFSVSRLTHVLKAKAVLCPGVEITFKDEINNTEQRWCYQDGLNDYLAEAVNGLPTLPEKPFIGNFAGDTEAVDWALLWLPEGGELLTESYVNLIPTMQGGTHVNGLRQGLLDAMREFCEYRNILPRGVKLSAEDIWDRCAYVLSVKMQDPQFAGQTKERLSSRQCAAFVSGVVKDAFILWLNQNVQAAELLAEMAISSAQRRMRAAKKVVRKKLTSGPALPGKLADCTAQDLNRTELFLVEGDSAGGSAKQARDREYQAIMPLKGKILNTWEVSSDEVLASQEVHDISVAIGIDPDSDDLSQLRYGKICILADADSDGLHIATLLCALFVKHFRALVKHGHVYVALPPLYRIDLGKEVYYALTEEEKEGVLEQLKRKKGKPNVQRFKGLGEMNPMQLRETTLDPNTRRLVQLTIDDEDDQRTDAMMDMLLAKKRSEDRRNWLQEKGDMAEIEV
Sequence (P0AFI2 whole entry partner): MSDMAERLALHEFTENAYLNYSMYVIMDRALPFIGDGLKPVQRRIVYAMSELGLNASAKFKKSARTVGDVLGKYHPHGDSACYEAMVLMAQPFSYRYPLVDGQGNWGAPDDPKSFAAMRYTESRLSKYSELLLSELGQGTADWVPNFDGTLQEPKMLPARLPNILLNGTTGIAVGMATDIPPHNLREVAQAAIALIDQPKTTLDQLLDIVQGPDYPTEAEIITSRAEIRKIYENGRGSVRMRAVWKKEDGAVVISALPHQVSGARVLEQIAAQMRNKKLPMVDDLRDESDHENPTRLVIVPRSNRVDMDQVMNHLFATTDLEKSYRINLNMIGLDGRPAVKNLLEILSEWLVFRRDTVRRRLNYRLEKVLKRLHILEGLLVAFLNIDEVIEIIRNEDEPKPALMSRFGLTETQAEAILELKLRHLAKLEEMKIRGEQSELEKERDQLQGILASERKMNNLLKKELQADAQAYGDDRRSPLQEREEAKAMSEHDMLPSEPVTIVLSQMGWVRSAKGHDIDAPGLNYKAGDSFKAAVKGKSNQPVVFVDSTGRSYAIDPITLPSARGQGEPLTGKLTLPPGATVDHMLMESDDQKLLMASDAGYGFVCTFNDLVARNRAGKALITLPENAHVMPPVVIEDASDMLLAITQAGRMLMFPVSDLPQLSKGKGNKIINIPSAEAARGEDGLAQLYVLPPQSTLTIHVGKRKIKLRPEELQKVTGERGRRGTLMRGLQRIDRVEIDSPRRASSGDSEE
Hi! Could you send only the number? It should be in %, unit omitted.

Use these answered entries as a reference point.
{"columns": ["compound", "target_entity", "metric_name", "unit_abbreviation", "reported"],
 "data": [
  ["Cc1[nH]c(C(=O)Nc2ccc(C(=O)NCC(=O)O)c(OC(C)C)c2)c(Cl)c1Cl [Compound 23d]", "E. coli topoisomerase IV (Escherichia coli, UniProt P20083)", "remaining activity at 1 µM", "%", 100],
  ["Cc1[nH]c(C(=O)Nc2ccc(C(=O)N[C@@H](C)C(=O)NN)cc2OC(C)C)c(Cl)c1Cl [Compound 10a]", "E. coli topoisomerase IV (Escherichia coli, UniProt P20083)", "remaining activity at 1 µM", "%", 100],
  ["CC(C)Oc1cc(NC(=O)c2cc(Br)c(Br)[nH]2)ccc1C(=O)NCC(=O)O [Compound 23c]", "E. coli topoisomerase IV (Escherichia coli, UniProt P20083)", "remaining activity at 1 µM", "%", 100]
]}

Moving on to another compound below.
Field request: remaining activity at 1 µM | item: `Cc1[nH]c(C(=O)Nc2ccc(C(=O)N[C@@H](C)C(=O)O)cc2OCCNC(=O)OC(C)(C)C)c(Cl)c1Cl`
100
